Format: in vivo, human (healthy Chinese subjects)
run-parameters: human, plasma, po, 10 mg
measured-endpoint: AUC(0-t) (ng·h/mL)
Just the number please, in ng·h/mL, no unit attached.

Could you share which AUC(0-t) value was measured for COc1ccc(-n2nc(C(N)=O)c3c2C(=O)N(c2ccc(N4CCCCC4=O)cc2)CC3)cc1 [apixaban] ?
2270

---

Type: in vivo, human (healthy Chinese subjects)
run-parameters: human, plasma and urine, oral, 10 mg, CLR, Mean (SD), multiple doses 10 mg twice daily, day 9, n=12
measured-endpoint: CL renal (mL/min)
Just the number please, in mL/min, no unit attached.

Could you share which CL renal value was measured for "COc1ccc(-n2nc(C(N)=O)c3c2C(=O)N(c2ccc(N4CCCCC4=O)cc2)CC3)cc1" ?
20

---

Format: in vivo, human (healthy Chinese subjects)
run-parameters: human, plasma, po, 10 mg
measured-endpoint: Cmax (ng/mL)
Just the number please, in ng/mL, no unit attached.

Could you share which Cmax value was measured for COc1ccc(-n2nc(C(N)=O)c3c2C(=O)N(c2ccc(N4CCCCC4=O)cc2)CC3)cc1 [apixaban] ?
234
